Origin of values: PubChem BioAssay AID1159580

ASSAY NAME: chemical genetic growth profiling, strain panel (AID 1159580);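 note: tested at 20 µM; growth read once vehicle control cultures reached saturation at 30 °C; lower values mean less growth of the strain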
MEASUREMENT CONDITIONS: S. cerevisiae deletion strains, growth OD, locus YOR270C, strain vph1
Hit rate of the full screen: of about 5,500 compounds, about 2,000 (36%) were called active. Inconclusive results (about 18%) are left out. Cut-off read from the data, not from the text of the source: active = normalized growth mostly below about 0.91 (no sharp cut-off); inconclusive = no clear call, values can overlap the other calls; inactive = mostly above about 0.92. The list shows a part of the results.
Outcomes: active, inactive

>  <MOLECULE>
CN1CCOC(c2ccccc2)c2ccccc2C1 (stereo not given)

>  <QUALITATIVE LABEL>
inactive

$$$$
>  <MOLECULE>
COc1ccc2cc3[n+](cc2c1OC)CCc1cc2c(cc1-3)OCO2

>  <QUALITATIVE LABEL>
inactive

$$$$
>  <MOLECULE>
CN(N=O)C(=O)N[C@@H]1[C@@H](O)[C@H](O)[C@@H](CO)O[C@@H]1O

>  <QUALITATIVE LABEL>
inactive

$$$$
>  <MOLECULE>
O=C1CC[C@]23C=CC(=O)NCCCCNCCCNC(=O)/C=C/c4ccc(c2c4)O[C@@H]3C1

>  <QUALITATIVE LABEL>
inactive

$$$$
>  <MOLECULE>
O=C(O)/C=C(\CC(=O)O)C(=O)O

>  <QUALITATIVE LABEL>
inactive

$$$$
>  <MOLECULE>
O=C1CCc2cc(OCCCCc3nnnn3C3CCCCC3)ccc2N1

>  <QUALITATIVE LABEL>
inactive

$$$$
>  <MOLECULE>
COc1ccc(-c2cc(=O)c3ccccc3o2)cc1

>  <QUALITATIVE LABEL>
active

$$$$
>  <MOLECULE>
NCC(=O)CCC(=O)O

>  <QUALITATIVE LABEL>
inactive

$$$$
>  <MOLECULE>
CCCCCCc1ccc(O)cc1O

>  <QUALITATIVE LABEL>
active

$$$$
>  <MOLECULE>
O=c1cc(-c2ccc(O)cc2)oc2ccc(O)cc12

>  <QUALITATIVE LABEL>
inactive

$$$$
>  <MOLECULE>
COC(=O)C1=C(C)NC(C)=C(C(=O)OC)C1c1ccccc1[N+](=O)[O-]

>  <QUALITATIVE LABEL>
inactive

$$$$
>  <MOLECULE>
Cn1nnnc1SCC1=C(C(=O)O)N2C(=O)C(NC(=O)C(O)c3ccccc3)C2SC1 (stereo not given)

>  <QUALITATIVE LABEL>
inactive

$$$$
>  <MOLECULE>
COC(=O)C1=C(C)NC(C)=C(C(=O)OCC(C)C)C1c1ccccc1[N+](=O)[O-] (stereo not given)

>  <QUALITATIVE LABEL>
active

$$$$
>  <MOLECULE>
O=C(O)c1nc2cc(Cl)c(Cl)cc2[nH]c1=O

>  <QUALITATIVE LABEL>
inactive

$$$$
>  <MOLECULE>
CCCCC1C(=O)N(c2ccccc2)N(c2ccccc2)C1=O

>  <QUALITATIVE LABEL>
inactive

$$$$
>  <MOLECULE>
Nc1nnc(-c2cccc(Cl)c2Cl)c(N)n1

>  <QUALITATIVE LABEL>
inactive

$$$$
>  <MOLECULE>
CCCCCCCCCc1ccc(O)cc1

>  <QUALITATIVE LABEL>
active

$$$$
>  <MOLECULE>
COc1c(O)cc2c(-c3ccccc3)cc(=O)oc2c1OC

>  <QUALITATIVE LABEL>
inactive

$$$$
>  <MOLECULE>
COc1cc2cc[n+]3cc4c(OC)c(OC)ccc4cc3c2cc1OC

>  <QUALITATIVE LABEL>
inactive

$$$$
>  <MOLECULE>
CC(C)Oc1ccc2c(=O)cc(-c3ccccc3)oc2c1

>  <QUALITATIVE LABEL>
active

$$$$
